I'd appreciate it if you could supply Ratio values for the items below.
- tested on: Caspase-8 (Homo sapiens) (UniProt Q14790)
- Sequence (Q14790 217-374 limits assumed): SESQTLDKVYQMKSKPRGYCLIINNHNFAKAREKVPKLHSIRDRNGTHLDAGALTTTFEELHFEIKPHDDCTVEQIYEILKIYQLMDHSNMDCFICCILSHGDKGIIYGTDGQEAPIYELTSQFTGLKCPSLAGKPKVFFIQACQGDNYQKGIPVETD
- Sequence (Q14790 385-479 limits assumed): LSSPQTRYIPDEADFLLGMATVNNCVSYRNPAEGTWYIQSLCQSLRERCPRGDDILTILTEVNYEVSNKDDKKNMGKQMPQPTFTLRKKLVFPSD
- assay remarks: Inhibition of recombinant MCH5 (unknown origin) assessed as ratio of irreversible rate constant K3 to dissociation constant of the reversible binding step Ki pre-incubated for 60 mins with Acetyl-Tyr-Val-Ala-Asp-amino-4-methylcoumarin substrate followed by enzyme addition by fluorescence based assay
Please reply with the bare figure in M⁻¹ s⁻¹ and do not write the unit itself.

Param request: Ratio | system Caspase-8 (Homo sapiens) (UniProt Q14790) | item C[C@H](NC(=O)C(=O)Nc1cc(C(C)(C)C)ccc1C(C)(C)C)C(=O)N[C@@H](CC(=O)O)C(=O)COP(=O)(c1ccccc1)c1ccccc1
1.34e+06

Param request: Ratio | system Caspase-8 (Homo sapiens) (UniProt Q14790) | item CC(C)[C@H](NC(=O)C(=O)NC(c1ccccc1)c1ccccc1)C(=O)N[C@@H](CC(=O)O)C(=O)COc1c(F)c(F)cc(F)c1F
48600

Param request: Ratio | system Caspase-8 (Homo sapiens) (UniProt Q14790) | item C[C@H](NC(=O)C(=O)NCCc1ccccc1)C(=O)N[C@@H](CC(=O)O)C(=O)COP(=O)(c1ccccc1)c1ccccc1
667000

Param request: Ratio | system Caspase-8 (Homo sapiens) (UniProt Q14790) | item C[C@H](NC(=O)C(=O)Nc1ccccc1-c1ccccc1)C(=O)N[C@@H](CC(=O)O)C(=O)COC(=O)c1c(Cl)cccc1Cl
125000

Param request: Ratio | system Caspase-8 (Homo sapiens) (UniProt Q14790) | item CC(C)[C@H](NC(=O)C(=O)Nc1cccc2ccccc12)C(=O)N[C@@H](CC(=O)O)C(=O)COc1c(-c2ccccc2)oc2ccccc2c1=O
0

Param request: Ratio | system Caspase-8 (Homo sapiens) (UniProt Q14790) | item CC(C)[C@H](NC(=O)C(=O)Nc1ccccc1F)C(=O)N[C@@H](CC(=O)O)C(=O)COc1c(F)c(F)cc(F)c1F
49600

Param request: Ratio | system Caspase-8 (Homo sapiens) (UniProt Q14790) | item CC(C)[C@H](NC(=O)C(=O)Nc1ccccc1-c1ccccc1)C(=O)N[C@@H](CC(=O)O)C(=O)COc1c(F)c(F)cc(F)c1F
65300

Param request: Ratio | system Caspase-8 (Homo sapiens) (UniProt Q14790) | item C[C@H](NC(=O)C(=O)Nc1cc(C(F)(F)F)ccc1N1CCCC1)C(=O)N[C@@H](CC(=O)O)C(=O)COP(=O)(c1ccccc1)c1ccccc1
933000

Param request: Ratio | system Caspase-8 (Homo sapiens) (UniProt Q14790) | item C[C@H](NC(=O)C(=O)Nc1ccc(F)cc1)C(=O)N[C@@H](CC(=O)O)C(=O)COP(=O)(c1ccccc1)c1ccccc1
2.3e+06

Param request: Ratio | system Caspase-8 (Homo sapiens) (UniProt Q14790) | item C[C@H](NC(=O)C(=O)Nc1cc(C(C)(C)C)ccc1C(C)(C)C)C(=O)N[C@@H](CC(=O)O)C(=O)COc1c(F)c(F)cc(F)c1F
248000

Param request: Ratio | system Caspase-8 (Homo sapiens) (UniProt Q14790) | item C[C@H](NC(=O)C(=O)Nc1ccccc1F)C(=O)N[C@@H](CC(=O)O)C(=O)COC(=O)c1c(Cl)cccc1Cl
155000

----------
- tested on: Caspase-8 (Homo sapiens)
- assay remarks: Inhibition of recombinant MCH5 (unknown origin) assessed as ratio of irreversible rate constant K3 to dissociation constant of the reversible binding step Ki pre-incubated for 60 mins with Acetyl-Tyr-Val-Ala-Asp-amino-4-methylcoumarin substrate followed by enzyme addition by fluorescence based assay
observation type: Ratio (M⁻¹ s⁻¹)
Please reply with the bare figure in M⁻¹ s⁻¹ and do not write the unit itself.

Please report Ratio for the following compound: C[C@H](NC(=O)C(=O)Nc1ccccc1-c1ccccc1)C(=O)N[C@@H](CC(=O)O)C(=O)COP(=O)(c1ccccc1)c1ccccc1
207000

Please report Ratio for the following compound: C[C@H](NC(=O)C(=O)NC1CCCCC1)C(=O)N[C@@H](CC(=O)O)C(=O)COP(=O)(c1ccccc1)c1ccccc1
1.79e+06

Please report Ratio for the following compound: CC(C)[C@H](NC(=O)C(=O)Nc1ccccc1I)C(=O)N[C@@H](CC(=O)O)C(=O)COc1c(F)c(F)cc(F)c1F
1.03e+06

Please report Ratio for the following compound: CC(C)[C@H](NC(=O)C(=O)Nc1ccccc1Cc1ccccc1)C(=O)N[C@@H](CC(=O)O)C(=O)COc1c(F)c(F)cc(F)c1F
105000
